Some compounds, each annotated with its measured GI50.
target: HER2 (A775_G776insYVMA) expressing Ba/F3 stable cell line (Homo sapiens, UniProt P04626, DUP772-775, cells depend on it); assay: Cellular proliferation (Alamar Blue) assay, HER2 (A775_G776insYVMA) Ba/F3; type: cell-based; settings: HER2 (A775_G776insYVMA) Ba/F3 cells; 72 hr; Alamar Blue; read-out: YVMA IC50
Sequence (P04626 with tags, fused parts or gaps DUP772-775): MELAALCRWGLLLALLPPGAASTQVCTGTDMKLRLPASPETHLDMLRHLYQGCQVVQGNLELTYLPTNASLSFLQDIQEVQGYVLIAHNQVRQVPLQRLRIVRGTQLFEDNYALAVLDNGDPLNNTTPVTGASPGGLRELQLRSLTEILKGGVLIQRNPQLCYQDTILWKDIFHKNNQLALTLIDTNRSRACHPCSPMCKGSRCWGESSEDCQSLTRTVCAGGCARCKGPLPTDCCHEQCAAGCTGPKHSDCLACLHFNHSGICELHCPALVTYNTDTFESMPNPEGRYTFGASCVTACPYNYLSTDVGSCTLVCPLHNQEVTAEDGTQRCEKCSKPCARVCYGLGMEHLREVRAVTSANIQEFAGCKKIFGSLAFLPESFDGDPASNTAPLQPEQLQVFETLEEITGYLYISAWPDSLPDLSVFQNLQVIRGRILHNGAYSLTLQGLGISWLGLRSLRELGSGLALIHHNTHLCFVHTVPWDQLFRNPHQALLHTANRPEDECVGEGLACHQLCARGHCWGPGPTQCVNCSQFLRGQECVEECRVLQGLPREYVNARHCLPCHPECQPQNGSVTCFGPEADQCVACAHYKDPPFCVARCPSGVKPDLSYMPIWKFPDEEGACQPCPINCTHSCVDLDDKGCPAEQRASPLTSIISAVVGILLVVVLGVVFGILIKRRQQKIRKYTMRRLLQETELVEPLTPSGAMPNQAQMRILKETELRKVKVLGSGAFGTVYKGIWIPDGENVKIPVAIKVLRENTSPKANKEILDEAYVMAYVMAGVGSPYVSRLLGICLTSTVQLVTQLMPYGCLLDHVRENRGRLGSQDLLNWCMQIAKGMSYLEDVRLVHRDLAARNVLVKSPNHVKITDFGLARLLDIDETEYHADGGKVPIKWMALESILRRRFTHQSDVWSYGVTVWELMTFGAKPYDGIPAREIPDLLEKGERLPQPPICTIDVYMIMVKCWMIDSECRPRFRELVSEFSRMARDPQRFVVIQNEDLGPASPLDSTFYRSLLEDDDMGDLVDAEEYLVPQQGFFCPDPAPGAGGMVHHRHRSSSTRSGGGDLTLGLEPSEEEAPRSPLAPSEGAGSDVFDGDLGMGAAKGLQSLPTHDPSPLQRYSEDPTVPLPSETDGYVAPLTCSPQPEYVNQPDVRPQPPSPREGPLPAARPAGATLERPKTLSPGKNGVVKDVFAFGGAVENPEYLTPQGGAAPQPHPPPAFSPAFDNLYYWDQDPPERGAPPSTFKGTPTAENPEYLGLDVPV

[
  {
    "Smiles entry": "C=CC(=O)Nc1ccc(F)c(Nc2nc(Nc3cnn(C)c3)ncc2-c2c(F)cccc2OC)c1",
    "GI50 [nM]": 884
  },
  {
    "Smiles entry": "C=CC(=O)Nc1ccc(F)c(Nc2nc(Nc3cnn(C)c3)ncc2-c2ccc(Cl)c(F)c2)c1",
    "GI50 [nM]": 73
  },
  {
    "Smiles entry": "C=CC(=O)Nc1cccc(Nc2nc(Nc3cnn(C)c3)ncc2-c2ccc(OC(F)F)c(F)c2)c1",
    "GI50 [nM]": 49
  },
  {
    "Smiles entry": "CN(C)C/C=C/C(=O)Nc1cccc(Nc2nc(Nc3cnn(C)c3)ncc2-c2cc(F)cc(F)c2)c1",
    "GI50 [nM]": 237
  },
  {
    "Smiles entry": "C=CC(=O)Nc1ccc(F)c(Nc2nc(Nc3cnn(C)c3)ncc2-c2cnc(Cl)c(Cl)c2)c1",
    "GI50 [nM]": 42
  },
  {
    "Smiles entry": "C=CC(=O)Nc1ccc(F)c(Nc2nc(Nc3cnn(CCOC)c3)ncc2-c2ccc(F)c(Cl)c2)c1",
    "GI50 [nM]": 860
  },
  {
    "Smiles entry": "C=CC(=O)Nc1cccc(Nc2nc(Nc3cnn(C)c3)ncc2-c2ccc(F)c(F)c2)c1",
    "GI50 [nM]": 60
  },
  {
    "Smiles entry": "C=CC(=O)Nc1ccc(F)c(Nc2nc(Nc3cnn(CCO)c3)ncc2-c2ccc(Br)c(F)c2)c1",
    "GI50 [nM]": 56
  },
  {
    "Smiles entry": "C=CC(=O)Nc1ccc(F)c(Nc2nc(Nc3cnn(C)c3)ncc2-c2cc(F)c(F)c(OC(F)F)c2)c1",
    "GI50 [nM]": 163
  },
  {
    "Smiles entry": "C=CC(=O)Nc1ccc(F)c(Nc2nc(Nc3cnn(C)c3)ncc2-c2cc(C(F)(F)F)ccc2F)c1",
    "GI50 [nM]": 588
  },
  {
    "Smiles entry": "C=CC(=O)Nc1ccc(F)c(Nc2nc(Nc3cnn(C)c3)ncc2-c2cc(F)c(F)c(OC)c2)c1",
    "GI50 [nM]": 153
  },
  {
    "Smiles entry": "C=CC(=O)Nc1ccc(F)c(Oc2nc(Nc3cnn(C)c3)ncc2-c2ccc(Cl)c(F)c2)c1",
    "GI50 [nM]": 252
  },
  {
    "Smiles entry": "C=CC(=O)Nc1cccc(Nc2nc(Nc3cnn(C)c3)ncc2-c2cc(F)c(Br)c(Cl)c2)c1",
    "GI50 [nM]": 154
  },
  {
    "Smiles entry": "C=CC(=O)Nc1ccc(F)c(Nc2nc(Nc3cnn(C)c3)ncc2-c2ccc(F)c(OC)c2)c1",
    "GI50 [nM]": 262
  },
  {
    "Smiles entry": "C=CC(=O)Nc1ccc(F)c(Nc2nc(Nc3cnn(C)c3)ncc2-c2ccc3c(c2)OC(C)(C)O3)c1",
    "GI50 [nM]": 4570
  }
]
